# targetEntity: Macrophage colony-stimulating factor 1 receptor (Homo sapiens) (UniProt P07333)
# Sequence (P07333 whole entry): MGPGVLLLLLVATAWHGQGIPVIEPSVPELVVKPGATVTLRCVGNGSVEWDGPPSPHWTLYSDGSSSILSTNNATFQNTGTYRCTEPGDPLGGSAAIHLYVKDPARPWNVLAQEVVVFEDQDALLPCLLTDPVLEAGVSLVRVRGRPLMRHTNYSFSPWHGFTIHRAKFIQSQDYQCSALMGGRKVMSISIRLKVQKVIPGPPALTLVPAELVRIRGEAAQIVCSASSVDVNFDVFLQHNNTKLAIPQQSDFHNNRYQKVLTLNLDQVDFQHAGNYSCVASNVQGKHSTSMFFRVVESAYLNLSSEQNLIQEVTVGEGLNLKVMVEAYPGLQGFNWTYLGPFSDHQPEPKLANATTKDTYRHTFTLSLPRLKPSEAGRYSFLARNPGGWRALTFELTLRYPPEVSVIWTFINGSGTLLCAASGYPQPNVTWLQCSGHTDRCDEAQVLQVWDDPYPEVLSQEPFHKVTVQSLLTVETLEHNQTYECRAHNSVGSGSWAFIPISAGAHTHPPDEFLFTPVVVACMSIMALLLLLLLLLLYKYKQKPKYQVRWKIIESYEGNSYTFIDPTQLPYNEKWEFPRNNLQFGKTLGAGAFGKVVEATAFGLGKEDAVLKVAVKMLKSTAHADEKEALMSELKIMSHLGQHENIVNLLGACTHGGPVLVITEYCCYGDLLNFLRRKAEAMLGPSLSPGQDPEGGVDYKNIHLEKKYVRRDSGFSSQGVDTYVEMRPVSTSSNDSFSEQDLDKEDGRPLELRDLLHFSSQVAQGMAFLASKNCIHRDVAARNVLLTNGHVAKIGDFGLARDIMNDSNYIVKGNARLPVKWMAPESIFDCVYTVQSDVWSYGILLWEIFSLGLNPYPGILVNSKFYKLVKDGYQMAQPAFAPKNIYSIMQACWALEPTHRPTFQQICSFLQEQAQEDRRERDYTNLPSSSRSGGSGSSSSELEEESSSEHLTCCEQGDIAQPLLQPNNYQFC
# conditionInfo: at 1 µM
Give residual activity for every item shown.
One number for each entry, in %.

Answered cases to consult:
- O=[N+]([O-])c1ccc(-c2nc(-c3ccc(F)cc3)c(-c3ccncc3)[nH]2)cc1: 81
- Cc1nc(-c2ccccc2)c(-c2ccncc2)o1: 90
- NC(=O)c1ccc2[nH]c(-c3ccc(Oc4ccc(Cl)cc4)cc3)nc2c1: 84
- O=C1Nc2ccc(Br)cc2/C1=C\c1cc2c([nH]1)CCCC2: 11
- CN(C)c1ccc(/C=C2\C(=O)Nc3ccccc32)cc1: 8

query: Need residual activity, item CCN(CC)C(=O)c1ccc(Nc2nc(OCC3CCCCC3)c3nc[nH]c3n2)cc1
result: 1
